Tested on: Breast carcinoma cell
method summary: Cytotoxicity against human Breast carcinoma cell assessed as inhibition of cell growth measured at 72 hrs
Format: functional, cell-based
pIC50: −log10 of the molar value.

- molecule: "O=C1CC(N2C(=O)/C(=C/C(Cl)=C/c3ccc([N+](=O)[O-])cc3)SC2=S)C(=O)N1c1ccc(Cl)cc1 (configuration not stated)"
  pIC50: 6.00
- molecule: "O=C1CC(N2C(=O)/C(=C/C(Cl)=C/c3ccc([N+](=O)[O-])cc3)SC2=S)C(=O)N1c1ccc(O)cc1 (configuration not stated)"
  pIC50: 6.00

---

Tested on: SCC-15
method summary: Cytotoxicity against human SCC-15 cells assessed as decrease in cellular metabolic activity incubated for 48 hrs by resazurin reduction assay
Format: functional, cell-based
run parameters: SCC-15, 48 h

- compound: "O=C1CC(N2C(=O)/C(=C/C(Cl)=C/c3ccc([N+](=O)[O-])cc3)SC2=S)C(=O)N1c1ccc(Cl)cc1 (stereo not drawn)"
  IC50, µM: 30.4
- compound: "O=C1CC(N2C(=O)/C(=C/C(Cl)=C/c3ccc([N+](=O)[O-])cc3)SC2=S)C(=O)N1c1ccc(Br)cc1 (stereo not drawn)"
  IC50, µM: 39.9
- compound: "O=C1CC(N2C(=O)/C(=C/C(Cl)=C/c3ccc([N+](=O)[O-])cc3)SC2=S)C(=O)N1c1ccc(O)cc1 (stereo not drawn)"
  IC50, µM: 6.72

The origin of these recorded values is ChEMBL document CHEMBL5325509.
